molecular target: factor VIIa/tissue factor (Homo sapiens, UniProt P08709); construct: human factor VIIa and TF; test: Factor VIIa (FVIIa) chromogenic assay; conditions: human factor VIIa 5 nM and TF 10 nM; chromogenic substrate S-2288 500 μM; 25° C.; 15 minute preincubation; pH 8.15
Sequence (P08709 213-466 limits assumed): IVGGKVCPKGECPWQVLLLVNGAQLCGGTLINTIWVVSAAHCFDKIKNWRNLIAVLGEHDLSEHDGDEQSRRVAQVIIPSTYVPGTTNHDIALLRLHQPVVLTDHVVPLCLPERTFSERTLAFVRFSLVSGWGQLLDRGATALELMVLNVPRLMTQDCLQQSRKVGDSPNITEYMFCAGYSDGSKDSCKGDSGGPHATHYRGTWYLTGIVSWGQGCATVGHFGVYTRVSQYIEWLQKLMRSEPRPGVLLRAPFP
Sequence (P08709 61-212 limits assumed): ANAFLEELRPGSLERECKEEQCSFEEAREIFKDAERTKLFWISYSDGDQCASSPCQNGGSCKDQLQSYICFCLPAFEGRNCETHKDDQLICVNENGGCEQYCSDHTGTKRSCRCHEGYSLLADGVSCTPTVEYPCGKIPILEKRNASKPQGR
Sequence (P13726 33-295 partner): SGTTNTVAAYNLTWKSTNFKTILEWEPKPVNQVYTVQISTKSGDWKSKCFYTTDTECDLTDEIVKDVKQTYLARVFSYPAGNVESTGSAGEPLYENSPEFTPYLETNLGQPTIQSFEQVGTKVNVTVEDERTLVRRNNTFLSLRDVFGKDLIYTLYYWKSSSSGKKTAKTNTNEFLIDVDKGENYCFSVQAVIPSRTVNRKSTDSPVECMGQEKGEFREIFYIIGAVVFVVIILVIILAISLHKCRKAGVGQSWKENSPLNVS
Each item that follows carries a reported Ki.
measureName: Ki

# compound, measureName, assayValue
measured = [
    ("CC(Nc1ccccc1NC(=O)Nc1ccc(C(=N)N)cc1)c1ccc(C(=O)Nc2ccc(C(F)(F)F)cc2)cc1 (stereo not drawn)", "Ki", "935 nM"),
    ("CC(Nc1ccccc1NC(=O)Nc1ccc(C(=N)N)cc1)c1ccc(C(=O)N2CCOCC2)cc1 (stereo not drawn) [Example 5, acetate]", "Ki", "188 nM"),
    ("CC(Nc1ccccc1NC(=O)Nc1ccc(C(=N)N)cc1)c1ccc(C(=O)NC2CCCCC2)cc1 (stereo not drawn)", "Ki", "56 nM"),
    ("C[C@@H](Nc1ccccc1NC(=O)Nc1ccc(C(=N)N)cc1)c1ccccc1", "Ki", "103 nM"),
    ("CC(Nc1ccccc1NC(=O)Nc1ccc(C(=N)N)cc1)c1ccc(C(=O)Nc2csc(-c3ccccc3)c2)cc1 (stereo not drawn)", "Ki", "282 nM"),
    ("CC(Nc1ccccc1CNC(=O)Nc1ccc(C(=N)N)cc1)c1cccc(C(F)(F)F)c1 (stereo not drawn)", "Ki", "44400 nM"),
    ("CC(Nc1ccccc1NC(=O)Nc1ccc(C(=N)N)cc1)c1ccccc1 (stereo not drawn)", "Ki", "700 nM"),
    ("CC(Nc1ccccc1NC(=O)Nc1ccc(C(=N)N)cc1)c1ccc(C(=O)NCc2ccc(S(C)(=O)=O)cc2)cc1 (stereo not drawn)", "Ki", "98 nM"),
    ("CC(Nc1ccccc1NC(=O)Nc1ccc(C(=N)N)cc1)c1ccc(C(=O)Nc2cccc(S(C)(=O)=O)c2)cc1 (stereo not drawn)", "Ki", "51 nM"),
]
